Data origin: paper PMC10552397

- Target Or System: UniProt Q9H8Y8
- Protocol Description: Thermal proteome profiling compound concentration range (TPP-CCR), GRASP55
- Format: binding
- Design: endogenous in cells
- Recorded Conditions: EC50 of GRASP55 stabilization, HeLa wt, 6 h, 3 min at 50 °C
Observable: pEC50
Here pEC50 is given on a logarithmic scale as minus log10 of the concentration in mol/L.

Task: Can you share its pEC50? I mean this molecule: CCCCCC1=C/C(=C/c2[nH]c(-c3ccc[nH]3)cc2OC)N=C1C [Prodigiosin, prodigiosin]
Output: 8.59

----------
- Target Or System: proteins of HeLa wt cells (Homo sapiens)
- Sequence (P30837 18-517): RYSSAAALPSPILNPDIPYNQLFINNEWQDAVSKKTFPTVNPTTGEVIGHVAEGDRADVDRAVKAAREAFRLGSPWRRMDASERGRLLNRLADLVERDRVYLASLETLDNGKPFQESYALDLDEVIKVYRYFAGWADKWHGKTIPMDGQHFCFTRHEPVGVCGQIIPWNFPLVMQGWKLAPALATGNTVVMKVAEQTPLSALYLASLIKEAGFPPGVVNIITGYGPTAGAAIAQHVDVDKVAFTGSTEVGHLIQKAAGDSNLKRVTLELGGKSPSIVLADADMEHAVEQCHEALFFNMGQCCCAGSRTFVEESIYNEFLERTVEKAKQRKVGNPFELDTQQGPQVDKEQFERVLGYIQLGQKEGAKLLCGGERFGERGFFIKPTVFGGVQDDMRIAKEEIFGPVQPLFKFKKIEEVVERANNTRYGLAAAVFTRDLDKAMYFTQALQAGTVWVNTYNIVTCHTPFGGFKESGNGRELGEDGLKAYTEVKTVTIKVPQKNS
- Protocol Description: biochemical
Observable: pEC50
Here pEC50 is given on a logarithmic scale as minus log10 of the concentration in mol/L.

Task: Can you share its pEC50? I mean this compound: CCCCCC1=C/C(=C/c2[nH]c(-c3ccc[nH]3)cc2OC)N=C1C [Prodigiosin, prodigiosin]
Output: 8.36
